Origin of measurements: PubChem BioAssay

- assay-details: inhibitors of TNFa-induced NFkB p65 translocation, primary screen, imaging, HUVEC, MLSMR starter and 10KST1 sets (AID 438);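 further: compound added about 3h40 before a 20 min TNFalpha stimulation; signal is the nuclear over cytoplasmic p65 intensity ratio per well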
- assay-context: HUVEC TNFa-induced p65 nuclear translocation; at 2 µM, stronger effect = higher value, 0% TNFa-plus-vehicle, 100% no-TNFa wells
assay-endpoint: inhibition (%)
Respond numerically; units are % and should not be typed.

# example entries with known answers
{"compound": "Nc1c2c(nc3ccccc13)N(C1CCCCC1)CC2", "quantity-unit": "%", "observed-result": 21.3}
{"compound": "COc1cccc(CNc2nc3nc(C)c(Cl)c(C)n3n2)c1", "quantity-unit": "%", "observed-result": 2.8}
{"compound": "CCOc1ccc(S(=O)(=O)NC(C)(C)C)cc1-c1nc2c(C(C)(C)C)nn(C)c2c(=O)[nH]1", "quantity-unit": "%", "observed-result": -6.1}
{"compound": "CCOc1ccc(NC(=O)C(C)Sc2nnc(C)n2C)cc1 (stereo unspecified)", "quantity-unit": "%", "observed-result": -9.5}
{"compound": "CCc1nc2c(sc3nc(N4CCOCC4)c4c(c32)CC(C)(C)OC4)c(=O)o1", "quantity-unit": "%", "observed-result": 0.8}
{"compound": "COc1ccccc1-n1c(N)c(C(=O)NCC2CCCO2)c2nc3ccccc3nc21 (stereo unspecified)", "quantity-unit": "%", "observed-result": -11.8}

query: Could you share which inhibition value was measured for `CCCCN(C)C(=O)CS(=O)(=O)Cc1nc(-c2cccc(OC)c2)oc1C` ?
result: 1.1

query: Also check `Cc1cc(=O)[nH]c(COc2ccccc2)n1`
result: -9.9

query: Also check `O=C(NCc1ccccc1)c1cc(-c2ccco2)on1`
result: -0.9

query: Also check `O=C1CCCN1Cc1ncnn1-c1ccccc1`
result: -1.8

query: Also check CN(C)CCCN1C(=O)CSC1c1ccccc1 (stereo unspecified)
result: -8.9
